Test system: Tobacco mosaic virus
test-description: Antiviral activity against Tobacco mosaic virus (TMV) pre-treated with 30.7 ug/mL compound for 30 min followed by inoculation on left side of Nicotiana tabacum leaves assessed as virus inactivation effect measured 3 to 4 days post viral infection
Type: functional
Flag rule - Activity less than 30% flags true; the remaining entries get false.

Answered cases to consult:
compound="CCCCOP(=O)(OCCCC)C(N/C(SC)=C(/C#N)C(=O)OC)c1ccccc1 (stereo not given)" discrete_label=false
compound="CCOCCOC(=O)/C(C#N)=C(\\NC(c1ccccc1F)P(=O)(OCC)OCC)SC (stereo not given)" discrete_label=true
compound="CCOP(=O)(OCC)C(N/C(SC)=C(/C#N)C(=O)NCc1ccccc1)c1ccccc1F (stereo not given)" discrete_label=true
compound="CCOP(=O)(OCC)C(N/C(SC)=C(/C#N)C(=O)OC)c1ccccc1F (stereo not given)" discrete_label=false
compound=CNCC(=O)N[C@@H](CO)C(=O)N[C@H]1[C@H](O)[C@@H](O)[C@H](n2ccc(N)nc2=O)O[C@@H]1C(N)=O discrete_label=false

Decide: Activity of CCCOP(=O)(OCCC)C(N/C(SC)=C(/C#N)C(=O)OCC)c1ccccc1 (stereo not given) strictly below 30%?
true

Decide: Activity of CCCCOP(=O)(OCCCC)C(N/C(SC)=C(/C#N)C(=O)OCC)c1ccccc1 (stereo not given) strictly below 30%?
false

Decide: Activity of CCCCOP(=O)(OCCCC)C(N/C(SC)=C(/C#N)C(=O)OCCOCC)c1ccccc1 (stereo not given) strictly below 30%?
true

Decide: Activity of CCOP(=O)(OCC)C(N/C(SC)=C(/C#N)C(N)=O)c1ccccc1F (stereo not given) strictly below 30%?
true

====

System: Tobacco mosaic virus
test-description: Antiviral activity against Tobacco mosaic virus (TMV) pre-treated with 250 ug/mL compound for 30 min followed by inoculation on left side of Nicotiana tabacum leaves assessed as virus inactivation effect measured 3 to 4 days post viral infection
Format: functional
measured-property: Activity (%)
Reply numerically in %, unit not repeated.

compound="CCOP(=O)(OCC)C(N/C(SC)=C(/C#N)C(=O)OC)c1ccccc1F (stereo not given)" assayed_target="Tobacco mosaic virus" value_measured=69.7
compound="CCOCCOC(=O)/C(C#N)=C(\\NC(c1ccccc1F)P(=O)(OCC)OCC)SC (stereo not given)" assayed_target="Tobacco mosaic virus" value_measured=48.8
compound="CCCCOP(=O)(OCCCC)C(N/C(SC)=C(/C#N)C(=O)OCCOCC)c1ccccc1 (stereo not given)" assayed_target="Tobacco mosaic virus" value_measured=62

Data request, read-out Activity, for CCOP(=O)(OCC)C(N/C(SC)=C(/C#N)C(N)=O)c1ccccc1F (stereo not given)
49

Data request, read-out Activity, for CCCCOP(=O)(OCCCC)C(N/C(SC)=C(/C#N)C(=O)OCC)c1ccccc1 (stereo not given)
65.7

Data request, read-out Activity, for CNCC(=O)N[C@@H](CO)C(=O)N[C@H]1[C@H](O)[C@@H](O)[C@H](n2ccc(N)nc2=O)O[C@@H]1C(N)=O [NINGNANMYCIN]
80

Data request, read-out Activity, for CCOC(=O)/C(C#N)=C(\NC(c1ccccc1F)P(=O)(OCC)OCC)SC (stereo not given)
64.1

Data request, read-out Activity, for CCCCOP(=O)(OCCCC)C(N/C(SC)=C(/C#N)C(=O)OC)c1ccccc1 (stereo not given)
70.2

Data request, read-out Activity, for CCCOP(=O)(OCCC)C(N/C(SC)=C(/C#N)C(=O)OCC)c1ccccc1 (stereo not given)
50.1

Data request, read-out Activity, for CCOP(=O)(OCC)C(N/C(SC)=C(/C#N)C(=O)NCc1ccccc1)c1ccccc1F (stereo not given)
58.9
